Values compiled from ChEMBL document CHEMBL6083286.

Biological target: Protein cereblon/Estrogen receptor (Homo sapiens, UniProt P03372+Q96SW2)
Test: PROTAC activity at CRBN/ERalpha in human MCF7 cells assessed as reduction in ERalpha protein level measured after 12 hrs by Western blot analysis relative to control
Type: cell-based
Sequence (P03372 whole entry, looked up): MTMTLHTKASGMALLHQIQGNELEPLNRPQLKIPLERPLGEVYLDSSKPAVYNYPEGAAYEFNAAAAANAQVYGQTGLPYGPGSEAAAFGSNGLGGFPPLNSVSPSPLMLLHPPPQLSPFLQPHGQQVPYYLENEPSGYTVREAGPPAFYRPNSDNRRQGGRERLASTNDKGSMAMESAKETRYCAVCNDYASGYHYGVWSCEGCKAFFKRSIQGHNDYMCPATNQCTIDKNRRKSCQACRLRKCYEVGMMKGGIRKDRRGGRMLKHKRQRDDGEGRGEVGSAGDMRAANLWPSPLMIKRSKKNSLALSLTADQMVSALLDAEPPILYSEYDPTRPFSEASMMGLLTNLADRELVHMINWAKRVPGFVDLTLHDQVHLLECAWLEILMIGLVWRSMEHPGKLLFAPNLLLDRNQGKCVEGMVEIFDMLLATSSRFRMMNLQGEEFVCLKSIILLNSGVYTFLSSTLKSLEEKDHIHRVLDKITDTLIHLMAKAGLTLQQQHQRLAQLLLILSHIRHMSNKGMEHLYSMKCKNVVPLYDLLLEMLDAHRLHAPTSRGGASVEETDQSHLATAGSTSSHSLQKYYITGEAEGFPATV
Sequence (Q96SW2 whole entry, looked up): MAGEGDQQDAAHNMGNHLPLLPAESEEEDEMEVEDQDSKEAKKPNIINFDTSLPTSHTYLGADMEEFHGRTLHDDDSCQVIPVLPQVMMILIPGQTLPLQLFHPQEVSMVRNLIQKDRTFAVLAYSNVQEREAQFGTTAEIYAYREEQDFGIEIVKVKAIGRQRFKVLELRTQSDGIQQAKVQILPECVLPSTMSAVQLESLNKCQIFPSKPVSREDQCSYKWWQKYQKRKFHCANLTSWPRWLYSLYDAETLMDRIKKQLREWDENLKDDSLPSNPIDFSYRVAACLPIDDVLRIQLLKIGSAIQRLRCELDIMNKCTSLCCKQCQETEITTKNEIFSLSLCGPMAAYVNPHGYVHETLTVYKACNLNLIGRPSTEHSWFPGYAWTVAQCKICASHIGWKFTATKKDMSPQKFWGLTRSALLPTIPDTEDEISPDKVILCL
Answer each item with its documented Emax.
// units = %; emit number, no label

Query: Respond only with Emax recorded for "O=C1CC[C@H](N2Cc3c(ccc4c3OCC43CCN(CCCCC4CCN(c5ccc([C@@H]6c7ccc(O)cc7CC[C@@H]6c6ccccc6)cc5)CC4)CC3)C2=O)C(=O)N1"
Reply: 105

Query: Respond only with Emax recorded for "O=C1CC[C@H](N2Cc3c(ccc4c3OCC43CCN(C[C@@H]4CCC5(CCN(c6ccc([C@@H]7c8ccc(O)cc8CC[C@@H]7c7ccccc7)cc6)CC5)OC4)CC3)C2=O)C(=O)N1"
Reply: 103

Query: Respond only with Emax recorded for "O=C1CC[C@H](N2Cc3c(ccc4c3OCC43CCN(C(=O)CCC4CCN(c5ccc([C@@H]6c7ccc(O)cc7CC[C@@H]6c6ccccc6)cc5)CC4)CC3)C2=O)C(=O)N1"
Reply: 89

---

Target: Cytochrome P450 1A2 (Homo sapiens)
Sequence (P05177 whole entry): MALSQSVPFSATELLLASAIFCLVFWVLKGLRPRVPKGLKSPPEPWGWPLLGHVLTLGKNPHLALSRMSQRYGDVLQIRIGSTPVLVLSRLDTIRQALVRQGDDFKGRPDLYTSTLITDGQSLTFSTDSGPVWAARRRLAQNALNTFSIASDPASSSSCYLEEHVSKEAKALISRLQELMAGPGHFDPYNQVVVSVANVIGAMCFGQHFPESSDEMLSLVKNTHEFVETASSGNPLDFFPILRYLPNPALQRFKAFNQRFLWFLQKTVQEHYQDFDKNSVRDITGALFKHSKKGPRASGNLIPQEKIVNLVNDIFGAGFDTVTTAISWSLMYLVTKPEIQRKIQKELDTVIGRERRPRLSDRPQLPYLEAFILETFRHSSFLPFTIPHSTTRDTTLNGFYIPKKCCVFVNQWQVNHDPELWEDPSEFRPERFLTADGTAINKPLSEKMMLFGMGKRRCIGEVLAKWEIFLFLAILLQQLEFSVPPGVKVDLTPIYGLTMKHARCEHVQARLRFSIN
endpoint-name: IC50

Query: Respond only with IC50 recorded for "O=C1CC[C@H](N2Cc3c(ccc4c3OCC43CCN(C[C@@H]4CCC5(CCN(c6ccc([C@@H]7c8ccc(O)cc8CC[C@@H]7c7ccccc7)cc6)CC5)OC4)CC3)C2=O)C(=O)N1"
Reply: > 10 µM

---

Biological target: Protein cereblon/Estrogen receptor (Homo sapiens, UniProt P03372+Q96SW2)
Assay: PROTAC activity at CRBN/ERalpha in human MCF7 cells assessed as reduction in ERalpha protein level measured after 12 hrs by Western blot analysis
Type: cell-based
Sequence (P03372 whole entry): as the sequence (P03372 whole entry, looked up) above
Sequence (Q96SW2 whole entry): as the sequence (Q96SW2 whole entry, looked up) above
Answer each item with its documented DC50.
// units = nM; emit number, no label

Query: Respond only with DC50 recorded for "O=C1CC[C@H](N2Cc3c(ccc4c3OCC43CCN(CC4CCC5(CC4)CN(c4ccc([C@@H]6c7ccc(O)cc7CC[C@@H]6c6ccccc6)cc4)C5)CC3)C2=O)C(=O)N1"
Reply: 0.11

Query: Respond only with DC50 recorded for O=C1CC[C@H](N2Cc3c(ccc4c3OCC43CCN(CC4CCC5(CCN(c6ccc([C@@H]7c8ccc(O)cc8CC[C@@H]7c7ccccc7)cc6)CC5)C4)CC3)C2=O)C(=O)N1 (stereo partly specified)
Reply: 0.126

Query: Respond only with DC50 recorded for "O=C1CC[C@H](N2Cc3c(ccc4c3OCC43CCN(CCC4CCN(c5ccc([C@@H]6c7ccc(O)cc7CC[C@@H]6c6ccccc6)cc5)CC4)CC3)C2=O)C(=O)N1"
Reply: 0.0043

Query: Respond only with DC50 recorded for "O=C1CC[C@H](N2Cc3c(ccc4c3OCC43CCN(CC(=O)N4CC5(CCN(c6ccc([C@@H]7c8ccc(O)cc8CC[C@@H]7c7ccccc7)cc6)CC5)C4)CC3)C2=O)C(=O)N1"
Reply: 0.0341

Query: Respond only with DC50 recorded for "O=C1CC[C@H](N2Cc3c(ccc4c3OCC43CCN(C(=O)CN4CCC5(CC4)CN(c4ccc([C@@H]6c7ccc(O)cc7CC[C@@H]6c6ccccc6)cc4)C5)CC3)C2=O)C(=O)N1"
Reply: 0.034

Query: Respond only with DC50 recorded for "O=C1CC[C@H](N2Cc3c(ccc4c3OCC43CCN(C(=O)CCCC4CCN(c5ccc([C@@H]6c7ccc(O)cc7CC[C@@H]6c6ccccc6)cc5)CC4)CC3)C2=O)C(=O)N1"
Reply: 0.079

Query: Respond only with DC50 recorded for "O=C1CC[C@H](N2Cc3c(ccc4c3OCC43CCN(C(=O)CN4CCC5(CCN(c6ccc([C@@H]7c8ccc(O)cc8CC[C@@H]7c7ccccc7)cc6)CC5)C4)CC3)C2=O)C(=O)N1"
Reply: 0.029

Query: Respond only with DC50 recorded for "O=C1CC[C@H](N2Cc3c(ccc4c3OCC43CCN(CC4CCC5(CC4)CCN(c4ccc([C@@H]6c7ccc(O)cc7CC[C@@H]6c6ccccc6)cc4)CC5)CC3)C2=O)C(=O)N1"
Reply: 0.337

Query: Respond only with DC50 recorded for O=C1CC[C@H](N2Cc3c(ccc4c3OCC43CCN(CC4CCC5(CCN(c6ccc([C@@H]7c8ccc(O)cc8CC[C@@H]7c7ccccc7)cc6)CC5)O4)CC3)C2=O)C(=O)N1 (stereo partly specified)
Reply: 0.604

Query: Respond only with DC50 recorded for "O=C1CC[C@H](N2Cc3c(ccc4c3OCC43CCN(C(=O)CN4CCCC5(CCN(c6ccc([C@@H]7c8ccc(O)cc8CC[C@@H]7c7ccccc7)cc6)CC5)C4)CC3)C2=O)C(=O)N1"
Reply: 0.202

Query: Respond only with DC50 recorded for "O=C1CC[C@H](N2Cc3c(ccc4c3OCC43CCN(CC4CC5(C4)CN(c4ccc([C@@H]6c7ccc(O)cc7CC[C@@H]6c6ccccc6)cc4)C5)CC3)C2=O)C(=O)N1"
Reply: 0.156
